B1: Tracheary Element Differentiation Inhibitory Factor (TDIF) peptide [modified: hydroxyproline at 4 and 7; hydroxyproline at 4 and 7] [Arabidopsis thaliana] / extracellular domain of A. thaliana TDR (residues 30-642) [modified: … (parent)
chain 1: HEVPSGPNPISN
chain 2: LKFSPQLLSLLSLKTSLSGPPSAFQDWKVPVNGQNDAVWCSWSGVVCDNVTAQVISLDLSHRNLSGRIPIQIRYLSSLLYLNLSGNSLEGSFPTSIFDLTKLTTLDISRNSFDSSFPPGISKLKFLKVFNAFSNNFEGLLPSDVSRLRFLEELNFGGSYFEGEIPAAYGGLQRLKFIHLAGNVLGGKLPPRLGLLTELQHMEIGYNHFNGNIPSEFALLSNLKYFDVSNCSLSGSLPQELGNLSNLETLFLFQNGFTGEIPESYSNLKSLKLLDFSSNQLSGSIPSGFSTLKNLTWLSLISNNLSGEVPEGIGELPELTTLFLWNNNFTGVLPHKLGSNGKLETMDVSNNSFTGTIPSSLCHGNKLYKLILFSNMFEGELPKSLTRCESLWRFRSQNNRLNGTIPIGFGSLRNLTFVDLSNNRFTDQIPADFATAPVLQYLNLSTNFFHRKLPENIWKAPNLQIFSASFSNLIGEIPNYVGCKSFYRIELQGNSLNGTIPWDIGHCEKLLCLNLSQNHLNGIIPWEISTLPSIADVDLSHNLLTGTIPSDFGSSKTITTFNVSYNQLIGPIPSGSFAHLNPSFFSSNEGLCGDLVGKPCNSDRFNAGNADIDG

- Variants of: B1
- Protocol Notes: ITC
- Setup Conditions: with extracellular domain of A. thaliana TDR (residues 30-642) [modified: N-glycosylated at N111, N356, N378, N471 and N525 (one GlcNAc visible on each in the struct); parent: 103 nM
// returns Not met unless Kd is strictly below 500 nM, in which case Met

Ask | Please check: Kd for chain 1 HEVPSGPAPISN [chain 1 N8A] , strictly under 500 nM or not?
Reply | Met

Ask | Would you kindly repeat that for chain 1 HEVPSGPNPISA [chain 1 N12A] ?
Reply | Not met

Ask | Proceed to chain 1 HAVPSGPNPISN [chain 1 E2A]
Reply | Met

Ask | And the next one, chain 1 HEVPSTPNPISN [chain 1 G6T] ?
Reply | Not met

Ask | Also chain 1 HEVPSGPNPASN [chain 1 I10A] ?
Reply | Not met

Ask | Would you mind doing chain 1 HEVPSAPNPISN [chain 1 G6A] as well?
Reply | Not met

Ask | Subsequent entry: chain 1 HRVPSGPNPISN [chain 1 E2R]
Reply | Not met

Ask | Next up: chain 1 HEAPSGPNPISN [chain 1 V3A]
Reply | Not met

Ask | Cool, now chain 1 REVPSGPNPISN [chain 1 H1R]
Reply | Met

Ask | Repeat for the following variant: chain 1 AAAPSGPNPISN [chain 1 H1A E2A V3A]
Reply | Not met

Ask | Query chain 1 AEVPSGPNPISN [chain 1 H1A] next
Reply | Not met

Origin of the recorded values: paper PMC5383425
